Reported MIC is given for each of the following molecules.
# Tested on: Streptococcus pyogenes C203
# PROCEDURE_TEXT: broth micro-dilution MIC
# Format: cell-based

IN: I have this molecule here, CNC(CC(C)C)C(=O)NC1C(=O)NC(CC(N)=O)C(=O)NC2C(=O)NC3C(=O)NC(C(=O)NC(C(=O)O)c4cc(O)cc(O)c4-c4cc3ccc4O)C(OC3CC(C)(N)C(O)C(C)O3)c3ccc(c(Cl)c3)Oc3cc2cc(c3OC2OC(CO)C(O)C(O)C2OC2CC(C)(NCCCc3ccc(OC)cc3)C(O)C(C)O2)Oc2ccc(cc2Cl)C1O (stereo not drawn) [Compound 175] , and I need its recorded MIC.
OUT: 0.5 µg/mL

IN: I have this molecule here, CC(C)CC(C(=O)NC1C(=O)NC(CC(N)=O)C(=O)NC2C(=O)NC3C(=O)NC(C(=O)NC(C(=O)O)c4cc(O)cc(O)c4-c4cc3ccc4O)C(OC3CC(C)(N)C(O)C(C)O3)c3ccc(c(Cl)c3)Oc3cc2cc(c3OC2OC(CO)C(O)C(O)C2OC2CC(C)(NCc3ccc4c(c3)OCO4)C(O)C(C)O2)Oc2ccc(cc2Cl)C1O)N(C)Cc1ccc2c(c1)OCO2 (stereo not drawn) [Compound 265] , and I need its recorded MIC.
OUT: ≤ 0.06 µg/mL

Attention now shifts to the item below.
IN: I have this molecule here, CC(C)CC(C(=O)NC1C(=O)NC(CC(N)=O)C(=O)NC2C(=O)NC3C(=O)NC(C(=O)NC(C(=O)O)c4cc(O)cc(O)c4-c4cc3ccc4O)C(OC3CC(C)(N)C(O)C(C)O3)c3ccc(c(Cl)c3)Oc3cc2cc(c3OC2OC(CO)C(O)C(O)C2OC2CC(C)(N)C(O)C(C)O2)Oc2ccc(cc2Cl)C1O)N(C)Cc1ccc(-c2ccc(Cl)cc2)cc1.O=C(O)C(F)(F)F (stereo not drawn) [Compound 252] , and I need its recorded MIC.
OUT: ≤ 0.06 µg/mL

====

# System: vancomycin-susceptible enterococci
# PROCEDURE_TEXT: broth micro-dilution, mean geometric MIC
# Format: cell-based, Enterococcus faecium and Enterococcus faecalis
# MEASUREMENT_SETUP: enterococci, 24-hour incubation
MEASURED_ENDPOINT: mean geometric MIC, Vancomycin Sensitive Strains (µg/mL)
Write the answer as a number in µg/mL, unit excluded.

Solved entries:
IN: I have this compound here, CNC(CC(C)C)C(=O)NC1C(=O)NC(CC(N)=O)C(=O)NC2C(=O)NC3C(=O)NC(C(=O)NC(C(=O)O)c4cc(O)cc(O)c4-c4cc3ccc4O)C(OC3CC(C)(N)C(O)C(C)O3)c3ccc(c(Cl)c3)Oc3cc2cc(c3OC2OC(CO)C(O)C(O)C2OC2CC(C)(NCc3ccc(-c4ccc(-c5ccccc5)cc4)cc3)C(O)C(C)O2)Oc2ccc(cc2Cl)C1O (stereo not drawn) [Compound 36] , and I need its recorded mean geometric MIC, Vancomycin Sensitive Strains.
OUT: 0.21

IN: I have this compound here, CNC(CC(C)C)C(=O)NC1C(=O)NC(CC(N)=O)C(=O)NC2C(=O)NC3C(=O)NC(C(=O)NC(C(=O)O)c4cc(O)cc(O)c4-c4cc3ccc4O)C(OC3CC(C)(N)C(O)C(C)O3)c3ccc(c(Cl)c3)Oc3cc2cc(c3OC2OC(CO)C(O)C(O)C2OC2CC(C)(NCc3cnc4ccccc4c3)C(O)C(C)O2)Oc2ccc(cc2Cl)C1O (stereo not drawn) [Compound 28] , and I need its recorded mean geometric MIC, Vancomycin Sensitive Strains.
OUT: 0.71

Next:
IN: I have this compound here, C=CCCCCCCCCCNC1(C)CC(OC2C(Oc3c4cc5cc3Oc3ccc(cc3Cl)C(OC3CC(C)(N)C(O)C(C)O3)C3NC(=O)C(NC(=O)C5NC(=O)C(CC(N)=O)NC(=O)C(NC(=O)C(CC(C)C)NC)C(O)c5ccc(c(Cl)c5)O4)c4ccc(O)c(c4)-c4c(O)cc(O)cc4C(C(=O)O)NC3=O)OC(CO)C(O)C2O)OC(C)C1O (stereo not drawn) [Compound 204] , and I need its recorded mean geometric MIC, Vancomycin Sensitive Strains.
OUT: 0.031
